target: Neuronal acetylcholine receptor subunit alpha-4 (Homo sapiens, UniProt P43681)
Sequence (P43681 whole entry): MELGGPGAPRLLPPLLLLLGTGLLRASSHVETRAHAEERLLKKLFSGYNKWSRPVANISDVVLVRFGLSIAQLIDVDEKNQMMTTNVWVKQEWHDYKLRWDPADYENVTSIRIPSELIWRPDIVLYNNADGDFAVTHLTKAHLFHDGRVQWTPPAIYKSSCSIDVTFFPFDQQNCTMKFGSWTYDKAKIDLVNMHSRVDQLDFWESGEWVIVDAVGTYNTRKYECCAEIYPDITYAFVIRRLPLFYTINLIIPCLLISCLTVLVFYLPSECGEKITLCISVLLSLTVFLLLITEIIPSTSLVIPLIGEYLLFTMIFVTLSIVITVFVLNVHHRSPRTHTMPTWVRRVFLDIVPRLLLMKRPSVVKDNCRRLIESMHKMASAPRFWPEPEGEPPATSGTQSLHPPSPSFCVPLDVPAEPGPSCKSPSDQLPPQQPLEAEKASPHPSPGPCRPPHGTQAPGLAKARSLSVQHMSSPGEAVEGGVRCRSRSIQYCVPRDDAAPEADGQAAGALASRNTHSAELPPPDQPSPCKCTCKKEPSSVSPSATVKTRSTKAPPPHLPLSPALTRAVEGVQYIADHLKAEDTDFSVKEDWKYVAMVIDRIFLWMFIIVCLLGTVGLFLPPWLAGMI
assay-notes: Synthesizing Selective Agonists for the ?7 Nicotinic Receptor with in situ Click-Chemistry on Acetylcholine Binding Protein Templates.
test-settings: pH 7.4; 37 °C
pKi: −log10 of the molar value.
Quick reference: pKi of the listed items.
observable: pKi

molecule	observable	operator-symbol	observed
CN1CC=C(OCc2cnnn2C2CC3CCC(C2)[N+]3(C)C)c2ccccc21 (configuration not stated)	pKi	=	4.64
CC(=O)c1c(OCc2cn([C@@H]3C[C@H]4CC[C@@H](C3)[N+]4(C)C)nn2)ccc2ccccc12 [22q]	pKi	<	4.52
CN1[C@@H]2CC[C@H]1C[C@H](n1cc(-c3cc(C(F)(F)F)cc(C(F)(F)F)c3)nn1)C2 [17t]	pKi	<	4.52
Cn1c(=O)cc(OCc2cn(CCC[N+]3(C)CCCC3)nn2)c2ccccc21	pKi	=	4.74
Cn1c(=O)cc(OCc2cn(CC[N+]3(C)CCCCC3)nn2)c2ccccc21	pKi	=	4.92
CN1[C@@H]2CC[C@H]1C[C@H](n1cc(CNS(=O)(=O)c3ccc([N+](=O)[O-])cc3)nn1)C2 [16t]	pKi	<	4.52
C[N+]1(C)[C@@H]2CC[C@H]1C[C@H](n1cc(COc3ccccc3-c3ccno3)nn1)C2 [14q]	pKi	<	4.52
Cn1c(=O)cc(OCc2cnnn2CCC[N+]2(C)CCCC2)c2ccccc21	pKi	=	4.40
CN1[C@@H]2CC[C@H]1C[C@H](n1cc(C3(O)CCCCC3)nn1)C2 [11t]	pKi	<	4.52
CN1[C@@H]2CC[C@H]1C[C@H](n1cc(CNC(=O)N3c4ccccc4CCc4ccccc43)nn1)C2 [23t]	pKi	<	4.52
C[N+]1(C)[C@@H]2CC[C@H]1C[C@H](n1cc(C(O)(c3ccccc3)C(F)(F)F)nn1)C2 (some centres not stated) [19q]	pKi	=	4.66
O=c1cc(OCc2cnnn2CC[N+]23CCC(CC2)CC3)c2ccccc2[nH]1	pKi	=	4.52
CN1[C@@H]2CC[C@H]1C[C@H](n1cc(C(O)(c3ccccc3)C(F)(F)F)nn1)C2 (some centres not stated) [19t]	pKi	<	4.52
Cn1c(=O)cc(OCc2cn(CC[N+]34CCC(CC3)CC4)nn2)c2ccccc21	pKi	=	5.10
C[N+]1(C)[C@@H]2CC[C@H]1C[C@H](n1cc(C3(O)CCCCC3)nn1)C2 [11q]	pKi	<	4.52
CN1[C@@H]2CC[C@H]1C[C@H](n1cc(COc3ccccc3-c3ccno3)nn1)C2 [14t]	pKi	<	4.52
C[N+]1(C)[C@@H]2CC[C@H]1C[C@H](n1cc(COc3cccc(C#N)c3)nn1)C2	pKi	<	4.52

---

target: Neuronal acetylcholine receptor subunit alpha-7 (Homo sapiens)
assay-notes: Synthesizing Selective Agonists for the ?7 Nicotinic Receptor with in situ Click-Chemistry on Acetylcholine Binding Protein Templates.
test-settings: pH 7.4; 37 °C
pEC50: −log10 of the molar value.
Each item that follows carries a reported pEC50.

compound	target	operator-symbol	pEC50
C[N+]1(C)[C@@H]2CC[C@H]1C[C@H](n1cc(COc3cccc(C#N)c3)nn1)C2 [alpha7 agonists 7]	Neuronal acetylcholine receptor subunit alpha-7 (Homo sapiens)	=	6.05
Cn1c(=O)cc(OCc2cn(CC[N+]34CCC(CC3)CC4)nn2)c2ccccc21 [alpha7 agonists 3]	Neuronal acetylcholine receptor subunit alpha-7 (Homo sapiens)	=	5.74
CN1[C@@H]2CC[C@H]1C[C@H](n1cc(C(O)(c3ccccc3)C(F)(F)F)nn1)C2 (stereo partly drawn) [19t]	Neuronal acetylcholine receptor subunit alpha-7 (Homo sapiens)	<	4.52
Cc1cc(C)nc(SCCCc2cn([C@@H]3C[C@H]4CC[C@@H](C3)[N+]4(C)C)nn2)n1 [21q]	Neuronal acetylcholine receptor subunit alpha-7 (Homo sapiens)	=	5.52
CN1[C@@H]2CC[C@H]1C[C@H](n1cc(C3(O)CCCCC3)nn1)C2 [11t]	Neuronal acetylcholine receptor subunit alpha-7 (Homo sapiens)	<	4.52
CN1[C@@H]2CC[C@H]1C[C@H](n1cc(COc3cc(=O)n(C)c4ccccc34)nn1)C2 [alpha7 agonists 4t]	Neuronal acetylcholine receptor subunit alpha-7 (Homo sapiens)	=	4.96
CN1[C@@H]2CC[C@H]1C[C@H](n1cc(CNC(=O)c3ccco3)nn1)C2 [12t]	Neuronal acetylcholine receptor subunit alpha-7 (Homo sapiens)	<	4.52
C[N+]1(C)[C@@H]2CC[C@H]1C[C@H](n1cc(CNC(=O)N3c4ccccc4CCc4ccccc43)nn1)C2 [23q]	Neuronal acetylcholine receptor subunit alpha-7 (Homo sapiens)	=	5.10

---

target: Neuronal acetylcholine receptor subunit alpha-7 (Homo sapiens, UniProt P36544)
Sequence (P36544 whole entry): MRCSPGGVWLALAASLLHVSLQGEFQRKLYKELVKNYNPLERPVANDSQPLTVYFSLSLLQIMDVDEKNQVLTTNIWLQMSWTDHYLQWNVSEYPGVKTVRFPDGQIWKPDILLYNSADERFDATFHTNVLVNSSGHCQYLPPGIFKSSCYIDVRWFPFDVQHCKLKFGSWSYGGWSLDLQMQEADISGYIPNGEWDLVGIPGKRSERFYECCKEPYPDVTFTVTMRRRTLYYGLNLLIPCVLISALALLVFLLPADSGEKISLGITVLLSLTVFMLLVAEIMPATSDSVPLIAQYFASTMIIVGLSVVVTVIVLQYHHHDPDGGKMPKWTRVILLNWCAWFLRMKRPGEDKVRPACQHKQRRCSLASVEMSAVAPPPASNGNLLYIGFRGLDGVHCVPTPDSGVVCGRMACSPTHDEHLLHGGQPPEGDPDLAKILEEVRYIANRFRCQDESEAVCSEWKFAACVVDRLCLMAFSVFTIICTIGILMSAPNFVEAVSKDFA
assay-notes: Synthesizing Selective Agonists for the ?7 Nicotinic Receptor with in situ Click-Chemistry on Acetylcholine Binding Protein Templates.
test-settings: pH 7.4; 37 °C
observable: log10(EC50) (log10 of the value in nM)

molecule	log10(EC50)
Cn1c(=O)cc(OCc2cn(CC[N+]3(C)CCCCC3)nn2)c2ccccc21 [alpha7 agonists 2]	3.08
C[N+]1(C)[C@@H]2CC[C@H]1C[C@H](n1cc(C3(O)CCCCC3)nn1)C2 [11q]	3.95
C[N+]1(C)[C@@H]2CC[C@H]1C[C@H](n1cc(C3(O)c4ccccc4-c4ccccc43)nn1)C2 [20q]	3.60
CN1CC=C(OCc2cnnn2C2CC3CCC(C2)[N+]3(C)C)c2ccccc21 (configuration not stated) [4']	2.78
Cn1c(=O)cc(OCc2cn([C@@H]3C[C@H]4CC[C@@H](C3)[N+]4(C)C)nn2)c2ccccc21 [alpha7 agonists 4]	2.48
Cn1c(=O)cc(OCc2cnnn2CCC[N+]2(C)CCCC2)c2ccccc21 [5']	3.30
Cc1cc([N+](=O)[O-])ccc1OCc1cn([C@@H]2C[C@H]3CC[C@@H](C2)[N+]3(C)C)nn1 [alpha7 agonists 9]	3.28
CCC[N+](C)(C)CCn1nncc1COc1cc(=O)n(C)c2ccccc12 [2']	3.62
C[N+]1(C)[C@@H]2CC[C@H]1C[C@H](n1cc(COc3ccccc3C3CCCC3)nn1)C2 [18q]	2.60
CC(=O)c1c(OCc2cn([C@@H]3C[C@H]4CC[C@@H](C3)[N+]4(C)C)nn2)ccc2ccccc12 [22q]	2.60
CN1[C@@H]2CC[C@H]1C[C@H](n1cc(CSc3nc4ccccc4s3)nn1)C2 [15t]	4.08
C[N+]1(C)[C@@H]2CC[C@H]1C[C@H](n1cc(COc3ccccc3-c3ccno3)nn1)C2 [14q]	3.30

---

Each entry below carries its reported pKi.
target: 5-hydroxytryptamine receptor 3A (Mus musculus, UniProt P23979)
Sequence (P23979 whole entry): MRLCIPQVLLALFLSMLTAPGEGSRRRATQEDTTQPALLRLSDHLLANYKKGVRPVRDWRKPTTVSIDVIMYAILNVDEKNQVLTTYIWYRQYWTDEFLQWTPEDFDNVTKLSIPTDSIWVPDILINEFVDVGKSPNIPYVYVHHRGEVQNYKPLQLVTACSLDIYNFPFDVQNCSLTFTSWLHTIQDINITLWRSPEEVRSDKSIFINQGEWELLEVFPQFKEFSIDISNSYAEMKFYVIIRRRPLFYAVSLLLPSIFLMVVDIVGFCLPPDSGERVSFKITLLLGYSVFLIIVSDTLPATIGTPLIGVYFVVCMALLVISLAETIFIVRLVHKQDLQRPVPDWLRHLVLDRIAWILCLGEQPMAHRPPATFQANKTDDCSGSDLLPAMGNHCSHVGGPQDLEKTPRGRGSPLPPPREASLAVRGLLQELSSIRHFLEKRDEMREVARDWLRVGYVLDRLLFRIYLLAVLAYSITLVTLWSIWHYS
pKi: −log10 of the molar value.

molecule	target	pKi
C[N+]1(C)[C@@H]2CC[C@H]1C[C@H](n1cc(COc3ccccc3-c3ccno3)nn1)C2 [14q]	5-hydroxytryptamine receptor 3A (Mus musculus, UniProt P23979)	< 4.52
C[N+]1(C)[C@@H]2CC[C@H]1C[C@H](n1cc(-c3cc(C(F)(F)F)cc(C(F)(F)F)c3)nn1)C2 [17q]	5-hydroxytryptamine receptor 3A (Mus musculus, UniProt P23979)	5.10
CC(=O)NCc1cn([C@@H]2C[C@H]3CC[C@@H](C2)N3C)nn1 [10t]	5-hydroxytryptamine receptor 3A (Mus musculus, UniProt P23979)	< 4.52
COc1cc(C=O)ccc1OCc1cn([C@@H]2C[C@H]3CC[C@@H](C2)[N+]3(C)C)nn1	5-hydroxytryptamine receptor 3A (Mus musculus, UniProt P23979)	< 4.52
CN1[C@@H]2CC[C@H]1C[C@H](n1cc(COc3ccccc3C3CCCC3)nn1)C2 [18t]	5-hydroxytryptamine receptor 3A (Mus musculus, UniProt P23979)	4.92
Cn1c(=O)cc(OCc2cn([C@@H]3C[C@H]4CC[C@@H](C3)[N+]4(C)C)nn2)c2ccccc21	5-hydroxytryptamine receptor 3A (Mus musculus, UniProt P23979)	4.47
CN1[C@@H]2CC[C@H]1C[C@H](n1cc(CNC(=O)N3c4ccccc4CCc4ccccc43)nn1)C2 [23t]	5-hydroxytryptamine receptor 3A (Mus musculus, UniProt P23979)	< 4.52
Cn1c(=O)cc(OCc2cnnn2CCC[N+]2(C)CCCC2)c2ccccc21	5-hydroxytryptamine receptor 3A (Mus musculus, UniProt P23979)	< 4.52
Cc1cc([N+](=O)[O-])ccc1OCc1cn([C@@H]2C[C@H]3CC[C@@H](C2)[N+]3(C)C)nn1	5-hydroxytryptamine receptor 3A (Mus musculus, UniProt P23979)	< 4.52
C[N+]1(C)[C@@H]2CC[C@H]1C[C@H](n1cc(C(O)(c3ccccc3)C(F)(F)F)nn1)C2 (stereo partly specified) [19q]	5-hydroxytryptamine receptor 3A (Mus musculus, UniProt P23979)	< 4.52
CN1[C@@H]2CC[C@H]1C[C@H](n1cc(COc3cc(=O)n(C)c4ccccc34)nn1)C2	5-hydroxytryptamine receptor 3A (Mus musculus, UniProt P23979)	4.82
CN1[C@@H]2CC[C@H]1C[C@H](n1cc(C3(O)CCCCC3)nn1)C2 [11t]	5-hydroxytryptamine receptor 3A (Mus musculus, UniProt P23979)	< 4.52
C[N+]1(C)[C@@H]2CC[C@H]1C[C@H](n1cc(C3(O)c4ccccc4-c4ccccc43)nn1)C2 [20q]	5-hydroxytryptamine receptor 3A (Mus musculus, UniProt P23979)	< 4.52
CN1[C@@H]2CC[C@H]1C[C@H](n1cc(CNC(=O)c3ccco3)nn1)C2 [12t]	5-hydroxytryptamine receptor 3A (Mus musculus, UniProt P23979)	< 4.52
Cn1c(=O)cc(OCc2cn(CC[N+]3(C)CCCCC3)nn2)c2ccccc21	5-hydroxytryptamine receptor 3A (Mus musculus, UniProt P23979)	< 4.52
CN1[C@@H]2CC[C@H]1C[C@H](n1cc(-c3cc(C(F)(F)F)cc(C(F)(F)F)c3)nn1)C2 [17t]	5-hydroxytryptamine receptor 3A (Mus musculus, UniProt P23979)	< 4.52
